Target: Nuclear receptor subfamily 1 group I member 2 (Homo sapiens, UniProt O75469)
Sequence (O75469 whole entry): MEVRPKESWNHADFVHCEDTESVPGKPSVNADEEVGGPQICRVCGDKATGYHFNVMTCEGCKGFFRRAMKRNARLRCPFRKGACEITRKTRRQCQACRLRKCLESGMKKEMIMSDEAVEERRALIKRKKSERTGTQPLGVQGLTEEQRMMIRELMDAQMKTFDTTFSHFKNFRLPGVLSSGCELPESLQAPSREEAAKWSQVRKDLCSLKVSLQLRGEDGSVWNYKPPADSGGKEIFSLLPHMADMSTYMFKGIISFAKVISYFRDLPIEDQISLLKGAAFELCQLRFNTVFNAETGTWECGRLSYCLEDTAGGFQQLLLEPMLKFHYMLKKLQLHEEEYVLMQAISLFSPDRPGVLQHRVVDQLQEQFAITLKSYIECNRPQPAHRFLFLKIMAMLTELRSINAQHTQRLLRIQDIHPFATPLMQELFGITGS
Experiment: Activation of human PXR
experimental.readout: EC50 (µM)
Please state the figure in µM; there is no need to write the unit.

// query EC50 value for entry CN1C(=O)[C@@H](NC(=O)c2nnc(Cc3ccccc3)[nH]2)COc2ccccc21 [GSK2982772]
13

###

Test: Cmax in rat at 2.1 mg/kg, po
Assay type: ADME, organism-based
Design: dose 2.1 mg/kg, route oral
Conditions: in vivo
experimental.readout: Cmax (ng/mL)
Please state the figure in ng/mL; there is no need to write the unit.

// query Cmax value for entry CN1C(=O)[C@@H](NC(=O)c2nnc(Cc3ccccc3)[nH]2)COc2ccccc21
810

###

Target: Receptor-interacting serine/threonine-protein kinase 1 (Homo sapiens, UniProt Q13546)
Sequence (Q13546 whole entry, the tested form may be a part): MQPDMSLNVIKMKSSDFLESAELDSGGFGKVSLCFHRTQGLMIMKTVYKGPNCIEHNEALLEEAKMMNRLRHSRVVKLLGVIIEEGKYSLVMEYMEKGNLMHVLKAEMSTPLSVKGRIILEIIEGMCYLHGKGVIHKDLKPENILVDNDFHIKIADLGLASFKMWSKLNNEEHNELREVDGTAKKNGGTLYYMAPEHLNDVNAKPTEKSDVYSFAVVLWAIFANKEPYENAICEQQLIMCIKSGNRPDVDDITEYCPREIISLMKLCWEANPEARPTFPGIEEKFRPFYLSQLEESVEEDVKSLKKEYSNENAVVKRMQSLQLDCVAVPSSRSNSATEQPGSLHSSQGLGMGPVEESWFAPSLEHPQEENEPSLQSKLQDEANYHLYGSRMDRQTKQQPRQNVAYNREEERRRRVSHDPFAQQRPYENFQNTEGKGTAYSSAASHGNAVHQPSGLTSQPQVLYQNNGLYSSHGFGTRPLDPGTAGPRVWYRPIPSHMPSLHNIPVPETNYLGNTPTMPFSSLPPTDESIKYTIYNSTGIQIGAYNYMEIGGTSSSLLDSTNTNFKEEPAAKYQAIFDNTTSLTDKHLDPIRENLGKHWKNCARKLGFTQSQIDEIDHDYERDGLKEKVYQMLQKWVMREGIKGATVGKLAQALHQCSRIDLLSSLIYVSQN
Assay: Inhibition of human RIP1 (1 to 375 residues) expressed in baculovirus infected insect cells preincubated for 1 hr followed by ATP addition measured after 5 hrs by ADP-Glo luminescence assay
# IC50 values compiled below
Please state the figure in pM; there is no need to write the unit.

Sample records with IC50:
- CN1C(=O)[C@@H](NC(=O)c2cc(Cc3ccccc3)on2)COc2ccc(NS(C)(=O)=O)cc21: 630
- CN1C[C@H](NC(=O)c2cc(Cc3ccccc3)on2)C(=O)N(C)c2ccccc21: 5000
- CN1C(=O)[C@@H](NC(=O)c2nnn(Cc3ccccc3)n2)COc2ccccc21: 79
- CN1C(=O)[C@@H](NC(=O)c2nnc(Cc3ccccc3)o2)COc2ccccc21: 790

// query IC50 value for entry CN1C(=O)[C@@H](NC(=O)c2cn(Cc3ccccc3)nn2)COc2ccccc21
1000

// query IC50 value for entry CN1C(=O)[C@@H](NC(=O)c2cc(Cc3ccccc3)ccn2)COc2ccccc21
2000

// query IC50 value for entry CN1C(=O)[C@@H](NC(=O)c2ncn(Cc3ccccc3)n2)COc2ccccc21
630

// query IC50 value for entry CN1C(=O)[C@@H](NC(=O)c2cc(Cc3ccccc3)on2)COc2ccc(-c3n[nH]c(=O)o3)cc21
500

// query IC50 value for entry CN1C(=O)[C@@H](NC(=O)c2cn(Cc3ccccc3)cn2)COc2ccccc21
400

###

Test: Fraction unbound in rat blood
Format: ADME, tissue-based
experimental.readout: fraction unbound
No unit in the answer, please; the number alone is enough.

// query fraction unbound value for entry CN1C(=O)[C@@H](NC(=O)c2nnc(Cc3ccccc3)[nH]2)COc2ccccc21
0.042

###

Test: Half-life in rat at 1.1 mg/kg, iv
Format: ADME, organism-based
Conditions: in vivo
experimental.readout: half-life (min)
Please state the figure in min; there is no need to write the unit.

// query half-life value for entry CN1C(=O)[C@@H](NC(=O)c2nnc(Cc3ccccc3)[nH]2)COc2ccccc21
234

###

Biological target: Receptor-interacting serine/threonine-protein kinase 1 (Homo sapiens)
Experiment: Displacement of (14-(2-{[3-({2-{[4-(cyanomethyl)phenyl]amino}-6-[(5-cyclopropyl-1H-pyrazol-3-yl)-amino]-4-pyrimidinyl}amino)propyl]amino}-2-oxoethyl)-16,16,18,18-tetramethyl-6,7,7a,8a,9,10,16,18-octahydrobenzo[2'',3'']indolizino-[8'',7'':5',6']pyrano[3',2':3,4]pyrido[1,2-a]indol-5-ium-2-sulfonate from human RIP1 (1 to 375 residues) expressed in baculovirus infected insect cells measured for 50 min
experimental.readout: pIC50
// pIC50 here means minus log10 of the molar concentration (mol/L)

• CN1C(=O)[C@@H](NC(=O)c2cnn(Cc3ccccc3)c2)COc2ccccc21 = 7.20

Note: attention shifts to another entry.
// query pIC50 value for entry CN1C(=O)[C@@H](NC(=O)c2cc(CC3CCCCC3)on2)COc2ccccc21
6.60
